Substrate: O=CC(O)COP(=O)(O)O
Assay: purified protein
Format: biochemical, Bacillus subtilis
Conditions: His-tagged proteins, R5P and glutamine as co-substrates, 50 mM Tris-Cl pH 7.5, 37°C
proteins and their reported Km
Only the number, expressed in mM, is required.

Below are worked cases with known answers.
{"columns": ["protein", "Km (mM)"],
 "data": [
  ["PLP synthase (Pdx1-His6 + Pdx2) (Bacillus subtilis subsp. subtilis str. 168; K187A) (protein, complex of C-terminally hexahistidine-tagged Pdx1 with Pdx2-His6; with Pyridoxal 5'-phosphate synthase subunit PdxT) AQTGTERVKRGMAEMQKGGVIMDVINAEQAKIAEEAGAVAVMALERVPADIRAAGGVARMADPTIVEEVMNAVSIPVMAKARIGHIVEARVLEAMGVDYIDESEVLTPADEEFHLNKNEYTVPFVCGCRDLGEATRRIAEGASMLRTKGEPGTGNIVEAVRHMRKVNAQVRKVVAMSEDELMTEAANLGAPYELLLQIKKDGKLPVVNFAAGGVATPADAALMMQLGADGVFVGSGIFKSDNPAKFAKAIVEATTHFTDYKLIAELSKELGTAMKGIEISNLLPEQRMQERGW", 0.267],
  ["PLP synthase (Pdx1-His6 + Pdx2) (Bacillus subtilis subsp. subtilis str. 168; H115A/R138A) (protein, complex of C-terminally hexahistidine-tagged Pdx1 with Pdx2-His6; with Pyridoxal 5'-phosphate synthase subunit PdxT) AQTGTERVKRGMAEMQKGGVIMDVINAEQAKIAEEAGAVAVMALERVPADIRAAGGVARMADPTIVEEVMNAVSIPVMAKARIGHIVEARVLEAMGVDYIDESEVLTPADEEFALNKNEYTVPFVCGCRDLGEATRAIAEGASMLRTKGEPGTGNIVEAVRHMRKVNAQVRKVVAMSEDELMTEAKNLGAPYELLLQIKKDGKLPVVNFAAGGVATPADAALMMQLGADGVFVGSGIFKSDNPAKFAKAIVEATTHFTDYKLIAELSKELGTAMKGIEISNLLPEQRMQERGW", 0.307],
  ["PLP synthase (Pdx1-His6 + Pdx2) (Bacillus subtilis subsp. subtilis str. 168; R138A) (protein, complex of C-terminally hexahistidine-tagged Pdx1 with Pdx2-His6; with Pyridoxal 5'-phosphate synthase subunit PdxT) AQTGTERVKRGMAEMQKGGVIMDVINAEQAKIAEEAGAVAVMALERVPADIRAAGGVARMADPTIVEEVMNAVSIPVMAKARIGHIVEARVLEAMGVDYIDESEVLTPADEEFHLNKNEYTVPFVCGCRDLGEATRAIAEGASMLRTKGEPGTGNIVEAVRHMRKVNAQVRKVVAMSEDELMTEAKNLGAPYELLLQIKKDGKLPVVNFAAGGVATPADAALMMQLGADGVFVGSGIFKSDNPAKFAKAIVEATTHFTDYKLIAELSKELGTAMKGIEISNLLPEQRMQERGW", 0.262]
]}

Which measured Km value corresponds to PLP synthase (Pdx1-His6 + Pdx2) (Bacillus subtilis subsp. subtilis str. 168) (protein, complex of C-terminally hexahistidine-tagged Pdx1 with Pdx2-His6; with Pyridoxal 5'-phosphate synthase subunit PdxT) AQTGTERVKRGMAEMQKGGVIMDVINAEQAKIAEEAGAVAVMALERVPADIRAAGGVARMADPTIVEEVMNAVSIPVMAKARIGHIVEARVLEAMGVDYIDESEVLTPADEEFHLNKNEYTVPFVCGCRDLGEATRRIAEGASMLRTKGEPGTGNIVEAVRHMRKVNAQVRKVVAMSEDELMTEAKNLGAPYELLLQIKKDGKLPVVNFAAGGVATPADAALMMQLGADGVFVGSGIFKSDNPAKFAKAIVEATTHFTDYKLIAELSKELGTAMKGIEISNLLPEQRMQERGW ? 0.155

Which measured Km value corresponds to PLP synthase (Pdx1-His6 + Pdx2) (Bacillus subtilis subsp. subtilis str. 168; E105D) (protein, complex of C-terminally hexahistidine-tagged Pdx1 with Pdx2-His6; with Pyridoxal 5'-phosphate synthase subunit PdxT) AQTGTERVKRGMAEMQKGGVIMDVINAEQAKIAEEAGAVAVMALERVPADIRAAGGVARMADPTIVEEVMNAVSIPVMAKARIGHIVEARVLEAMGVDYIDESDVLTPADEEFHLNKNEYTVPFVCGCRDLGEATRRIAEGASMLRTKGEPGTGNIVEAVRHMRKVNAQVRKVVAMSEDELMTEAKNLGAPYELLLQIKKDGKLPVVNFAAGGVATPADAALMMQLGADGVFVGSGIFKSDNPAKFAKAIVEATTHFTDYKLIAELSKELGTAMKGIEISNLLPEQRMQERGW ? 0.249

Where do these numbers come from? They come from paper PMC3024981.
